Attribute: MIC Enterococccus faecalis (GC 4554)
Tested on: Enterococcus sp.
Test: In vitro antibacterial evaluation: minimum inhibitory concentration (MIC), broth dilution method
Format: cell-based
Conditions: broth dilution, 5×10^5 CFU/mL, 18 hours at 35° C.
The response must be a number in µg/mL with no trailing unit.

q: Find the measured MIC Enterococccus faecalis (GC 4554): item CC(C)=CCCC(C)C1OCC2OC(OC3C(CO)OC(Oc4ccc(CC5NC(=O)C(C(C)c6ccccc6)NC(=O)CNC(=O)C(CO)NC(=O)C(C(O)C6CNC(=N)N6C6OC(CO)C(O)C(O)C6O)NC(=O)C(C(O)C6CNC(=N)N6)NC5=O)cc4)C(O)C3O)C(O)C(O)C2O1 (stereo not shown) , target or system Enterococcus sp..
a: 32

q: Give Enterococcus sp. MIC Enterococccus faecalis (GC 4554) for CC(c1ccccc1)C1NC(=O)CNC(=O)C(CO)NC(=O)C(C(O)C2CNC(=N)N2C2OC(CO)C(O)C(O)C2O)NC(=O)C(C(O)C2CNC(=N)N2)NC(=O)C(Cc2ccc(OC3OC(CO)C(OC4OC(CO)C(O)C5OC(CC67CC8CC(CC(C8)C6)C7)OC45)C(O)C3O)cc2)NC1=O (stereo not shown)
a: 4

q: Query MIC Enterococccus faecalis (GC 4554) on Enterococcus sp. for CC(c1ccccc1)C1NC(=O)CNC(=O)C(CO)NC(=O)C(C(O)C2CNC(=N)N2C2OC(CO)C(O)C(O)C2O)NC(=O)C(C(O)C2CNC(=N)N2)NC(=O)C(Cc2ccc(OC3OC(CO)C(OC4OC5COC(C6CCCCC6)OC5C(O)C4O)C(O)C3O)cc2)NC1=O (stereo not shown)
a: 2

====

Tested on: Escherichia coli
Test: In vitro antibacterial evaluation: minimum inhibitory concentration (MIC), broth dilution method
Format: cell-based
Conditions: Escherichia coli (GC 4560)
Numbered stars: 1 amine (or outer) side, 2 acyl side, 3 side chain; on linkers, the order of the positions; unused ones are H or OH. Square brackets hold non-standard residues; d marks the D form. Peptide text beside a SMILES is read from it. * marks the point of attachment. ξ: configuration not given here. X1 = N=C1NCC(C(O)C(N[*:1])C(=O)[*:2])N1C1OC(CO)C(O)C(O)C1O; ξEnduracididine(βξ-OH,4'ξ) = N=C1NCC(C(O)C(N)C(=O)O)N1; X2 = OCC1OC(OC2C(CO)OC(*)C(O)C2O)C(O)C(O)C1O; Cha = N[CH](CC1CCCCC1)C(=O)O
result.type: MIC Escherichia coli (GC 4560)

These solved cases illustrate the format of a correct answer.
compound: CC(C)CC(=O)OC1C(OC2C(CO)OC(Oc3ccc(CC4NC(=O)C(C(C)c5cccc(F)c5)NC(=O)CNC(=O)C(CO)NC(=O)C(C(O)C5CNC(=N)N5C5OC(CO)C(O)C(O)C5O)NC(=O)C(C(O)C5CNC(=N)N5)NC4=O)cc3)C(O)C2O)OC(CO)C(O)C1O (stereo not drawn) [Example 264a]
measured.target: Escherichia coli
value: 4 µg/mL
--
compound: N=C1NCC(C(O)C2NC(=O)C(Cc3ccc(O)cc3)NC(=O)C(Cc3ccccc3)NC(=O)CNC(=O)C(CO)NC(=O)C(C(O)C3CNC(=N)N3C3OC(CO)C(O)C(O)C3O)NC2=O)N1 (stereo not drawn) [Example 279a] (cyclo(GFY[ξEnduracididine(βξ-OH,4'ξ)][X1]S); configuration not given here)
measured.target: Escherichia coli
value: 32 µg/mL
--
compound: CC(=O)OCC1OC(OC2C(CO)OC(Oc3ccc(CC4NC(=O)C(C(C)c5ccccc5)NC(=O)CNC(=O)C(CO)NC(=O)C(C(O)C5CNC(=N)N5C5OC(CO)C(O)C(O)C5O)NC(=O)C(C(O)C5CNC(=N)N5)NC4=O)cc3)C(O)C2O)C(O)C(OC(=O)CCC(C)C)C1O (stereo not drawn) [Example 270b]
measured.target: Escherichia coli
value: 4 µg/mL

q: Looking for the measured MIC Escherichia coli (GC 4560) of CC(c1ccccc1)C1NC(=O)CNC(=O)C(CO)NC(=O)C(C(O)C2CNC(=N)N2C2OC(CO)C(O)C(O)C2O)NC(=O)C(C(O)C2CNC(=N)N2)NC(=O)C(Cc2ccc(OC3OC(CO)C(OC4OC(CO)C(O)C(O)C4O)C(O)C3O)cc2N)NC1=O (stereo not drawn) , can you help?
a: >64 µg/mL

q: What measured MIC Escherichia coli (GC 4560) goes with N=C1NCC(C(O)C2NC(=O)C(Cc3ccc(OC4OC(CO)C(OC5OC(CO)C(O)C(O)C5O)C(O)C4O)cc3)NC(=O)C(CC3CCCCC3)NC(=O)CNC(=O)C(CO)NC(=O)C(C(O)C3CNC(=N)N3C3OC(CO)C(O)C(O)C3O)NC2=O)N1 (stereo not drawn) [Example 263] (cyclo(G[Cha]Y(X2)[ξEnduracididine(βξ-OH,4'ξ)][X1]S); configuration not given here) ?
a: 16 µg/mL

q: Please give the measured MIC Escherichia coli (GC 4560) for this compound: CC(C)CC(=O)OC1C(OC2C(CO)OC(Oc3ccc(CC4NC(=O)C(C(C)c5ccccc5)NC(=O)CNC(=O)C(CO)NC(=O)C(CC5CNC(=N)N5C5OC(CO)C(O)C(O)C5O)NC(=O)C(CC5CNC(=N)N5)NC4=O)cc3)C(O)C2O)OC(CO)C(O)C1O (stereo not drawn) [Example 277b]
a: 32 µg/mL

====

Tested on: Staphylococcus sp.
Assay: In vitro antibacterial evaluation: minimum inhibitory concentration (MIC), broth dilution method
Assay type: cell-based
Conditions: strain GC 1131
result.type: MIC Staphylococcus aureus (GC 1131) (µg/mL)
Quick reminder: number only, in µg/mL, skip the unit.

q: // returns reported MIC Staphylococcus aureus (GC 1131) for input CC(c1ccccc1)C1NC(=O)CNC(=O)C(CO)NC(=O)C(C(O)C2CNC(=N)N2C2OC(CO)C(O)C(O)C2O)NC(=O)C(C(O)C2CNC(=N)N2)NC(=O)C(Cc2ccc(OC3OC(CO)C(OC4OC5COC6(CCCCCCCCCCC6)OC5C(O)C4O)C(O)C3O)cc2)NC1=O (stereo not shown)
a: 2

====

MIC Streptococcus pneumoniae (GC 4565) values for the compounds below.
Tested on: Streptococcus sp.
Experiment: In vitro antibacterial evaluation: minimum inhibitory concentration (MIC), broth dilution method
Assay type: cell-based
Details: strain GC 4565
Text: […]
Could you give me the number in µg/mL? Just the number is fine.

Some solved entries appear below for comparison.
compound: CC(c1ccccc1)C1NC(=O)CNC(=O)C(CO)NC(=O)C(C(O)C2CN(CCCCCCCCCCC(=O)O)C(=N)N2C2OC(CO)C(O)C(O)C2O)NC(=O)C(C(O)C2CNC(=N)N2)NC(=O)C(Cc2ccc(OC3OC(CO)C(OC4OC(CO)C(O)C(O)C4O)C(O)C3O)cc2)NC1=O (stereo not shown) [Example 72]
measured.target: Streptococcus sp.
unit.info: µg/mL
value: 64
--
compound: CCCCCCN=C1NCC(C(O)C2NC(=O)C(C(O)C3CNC(=N)N3)NC(=O)C(Cc3ccc(OC4OC(CO)C(OC5OC6COC7(OC6C(O)C5O)C5CC6CC(C5)CC7C6)C(O)C4O)cc3)NC(=O)C(C(C)c3ccccc3)NC(=O)CNC(=O)C(CO)NC2=O)N1C1OC(CO)C(O)C(O)C1O (stereo not shown) [Example 84]
measured.target: Streptococcus sp.
unit.info: µg/mL
value: 1

q: Requested field: MIC Streptococcus pneumoniae (GC 4565). Item: CC(=O)n1cc(C2OCC3OC(OC4C(CO)OC(Oc5ccc(CC6NC(=O)C(C(C)c7ccccc7)NC(=O)CNC(=O)C(CO)NC(=O)C(C(O)C7CNC(=N)N7C7OC(CO)C(O)C(O)C7O)NC(=O)C(C(O)C7CNC(=N)N7)NC6=O)cc5)C(O)C4O)C(O)C(O)C3O2)c2ccccc21 (stereo not shown) [Example 161]
a: 0.5

q: Which measured MIC Streptococcus pneumoniae (GC 4565) value corresponds to CC(c1ccccc1)C1NC(=O)CNC(=O)C(CO)NC(=O)C(C(O)C2CN(CCCCCCCCCCCCO)C(=N)N2C2OC(CO)C(O)C(O)C2O)NC(=O)C(C(O)C2CNC(=N)N2)NC(=O)C(Cc2ccc(OC3OC(CO)C(OC4OC(CO)C(O)C(O)C4O)C(O)C3O)cc2)NC1=O (stereo not shown) [Example 61] ?
a: 64

q: // lookup MIC Streptococcus pneumoniae (GC 4565) for CC(c1ccccc1)C1NC(=O)CNC(=O)C(CO)NC(=O)C(C(O)C2CN(Cc3ccccc3)C(=NCc3ccccc3)N2C2OC(CO)C(O)C(O)C2O)NC(=O)C(C(O)C2CN(Cc3ccccc3)C(=NCc3ccccc3)N2Cc2ccccc2)NC(=O)C(Cc2ccc(OC3OC(CO)C(OC4OC5COC6(OC5C(O)C4O)C4CC5CC(C4)CC6C5)C(O)C3O)cc2)NC1=O (stereo not shown) [Example 79]
a: 8

====

Test system: Staphylococcus sp.
Experiment: In vitro antibacterial evaluation: minimum inhibitory concentration (MIC), broth dilution method
Type: cell-based
Details: broth dilution, 18 hours at 35° C.
result.type: MIC Staphylococcus aureus SMITH (GC 4543) (µg/mL)
Note: unit µg/mL is implicit; provide only the numeric part.

q: Please provide the recorded MIC Staphylococcus aureus SMITH (GC 4543) for CC(c1ccccc1)C1NC(=O)CNC(=O)C(CO)NC(=O)C(C(O)C2CN(Cc3ccccc3)C(=NCc3ccccc3)N2C2OC(CO)C(O)C(O)C2O)NC(=O)C(C(O)C2CN(Cc3ccccc3)C(=NCc3ccccc3)N2Cc2ccccc2)NC(=O)C(Cc2ccc(OC3OC(CO)C(OC4OC5COC6(OC5C(O)C4O)C4CC5CC(C4)CC6C5)C(O)C3O)cc2)NC1=O (centres unmarked) [Example 79] , tested on Staphylococcus sp..
a: 4

q: Give MIC Staphylococcus aureus SMITH (GC 4543) (Staphylococcus sp.) of the following compound: CC(c1ccccc1)C1NC(=O)CNC(=O)C(CO)NC(=O)C(C(O)C2CNC(=N)N2C2OC(CO)C(O)C(O)C2O)NC(=O)C(C(O)C2CNC(=N)N2)NC(=O)C(Cc2ccc3oc(SCc4ccccc4)nc3c2)NC1=O (centres unmarked) [Example 45]
a: 8
